These measurements were taken from ChEMBL document CHEMBL2021907.

Species: Homo sapiens
Experiment: Disruption of microtubules in human MDA-MB-435 after 1 hr by immunoblotting technique
Activity calls are given as the source filed them. The rule behind the calls is not given here.
Hello, when you answer, please use one of the following outcomes: 1 for active, -1 for inactive

Reference set, count: 3
>>> assigned_category("COc1cc(-c2cc(=O)c3c(O)c(OC)c(O)cc3o2)ccc1OCC=C(C)C")
-1
>>> assigned_category("C=C(C)C(O)COc1ccc(-c2cc(=O)c3c(O)c(OC)c(O)cc3o2)cc1 (centres undefined)")
-1
>>> assigned_category("COc1c(O)cc2oc(-c3ccc(OCC=C(C)C)cc3)cc(=O)c2c1O")
-1

Here's the next entry for you.
Query: State the result this test recorded for O=C1OC[C@@H]2Cc3cc4c(cc3[C@@H](c3ccc5c(c3)OCO5)[C@@H]12)OCO4 .
Reply: 1

* * *

List of IC50 values.
Tested on: DU-145
Assay: Cytotoxicity against human DU145 cells after 48 hrs by SRB assay
Assay type: functional, cell-based
Conditions: DU-145, 48 h
Your answer is read as µM, so omit the unit and give the number.

>>> meas_value("COc1cc(-c2cc(=O)c3c(O)c(OC)c(O)cc3o2)ccc1OCC=C(C)C [AMYRISIN C]")
23

Lab note: next compound to report on.
Query: Entry C=C(C)C(O)COc1ccc(-c2cc(=O)c3c(O)c(OC)c(O)cc3o2)cc1 (configuration not stated) [AMYRISIN B] has what IC50?
Reply: 17.5
